The origin of these recorded values is PubChem BioAssay (NCI).

- System: DLD-1 colon
- experiment-summary: NCI tumour cell line growth inhibition, 48 h
parameter: TGI

>  <compound>
O=C(CC/C(C/C(=N/O)c1ccc(F)cc1)=N/O)N(Cc1ccccc1)Cc1ccccc1

>  <TGI>
> 100 µM

$$$$
>  <compound>
Cc1ccc(NC(=O)CC(=O)n2nc(-c3ccccc3)c(N=Nc3ccc(Cl)cc3)c2-c2ccccc2)cc1

>  <TGI>
54.4 µM

$$$$
>  <compound>
CCCCCCCCCCCCCC/C(C(=O)OC)=C(/O)C(=O)OCC

>  <TGI>
> 100 µM

$$$$
>  <compound>
COC(=O)[C@@H]1c2cc3c(c(O)c2[C@@H](OC)C[C@@]1(C)O)C(=O)c1c(O)cc2c(c1C3=O)OC1O[C@@]2(C)[C@H](O)[C@@H](N(C)C)[C@@H]1O

>  <TGI>
8.83 µM

$$$$
>  <compound>
N/N=C1\c2ccccc2C2/C(=N\N)c3ccccc3C12 (stereo not drawn)

>  <TGI>
> 100 µM

$$$$

Lookup: Tell me the measured TGI of `CN(C)CCNCc1c2ccccc2c(CNCCN(C)C)c2ccccc12` , please.
Found: > 100 µM

Lookup: Tell me the measured TGI of `O=c1ccc2ccccc2o1` , please.
Found: > 100 µM

Lookup: Tell me the measured TGI of C[n+]1c2ccccc2c(CNC(CCC(N)=O)C(=O)O)c2ccccc21 (stereo not drawn) , please.
Found: 1.83 µM

* * *

Listing: TGI of selected compounds
- Test system: NCI-H23 lung
- experiment-summary: NCI tumour cell line growth inhibition, 48 h

>  <compound>
Cc1ccc(S(=O)(=O)CNC(=S)CCCC(=S)NCS(=O)(=O)c2ccc(C)cc2)cc1

>  <TGI>
> 100 µM

$$$$

Lookup: Tell me the measured TGI of O=C(O)c1c(CC(Cc2ccc3c(c2)CCCC3)C(=O)O)ccc2c1CCCC2 (stereo not drawn) , please.
Found: > 100 µM

Lookup: Tell me the measured TGI of `CC(C)(C)OC(=O)C1=C(C(=O)OC(C)(C)C)SC2(S1)C(C(=O)OC(C)(C)C)=C(C(=O)OC(C)(C)C)Sc1c2ssc1=O` , please.
Found: > 100 µM

Lookup: Tell me the measured TGI of `O=C(O)Cc1ccc(N2N=C(c3ccccc3)CC2=O)cc1` , please.
Found: > 100 µM

Lookup: Tell me the measured TGI of `N#Cc1c(=O)c2cc([N+](=O)[O-])ccc2n2c1[nH]c1ccccc12` , please.
Found: > 38.4 µM

Lookup: Tell me the measured TGI of `O=[N+]([O-])c1ccc(/C=C/c2ccc(N=Nc3ccc(/C=C/c4ccc([N+](=O)[O-])cc4S(=O)(=O)O)c(S(=O)(=O)O)c3)cc2S(=O)(=O)O)c(S(=O)(=O)O)c1` , please.
Found: > 100 µM

Lookup: Tell me the measured TGI of `OCCCSc1ccccc1SCCCO` , please.
Found: > 100 µM

Lookup: Tell me the measured TGI of `COc1ccc2cc(C(=O)/C=C/c3cccc(Cl)c3Cl)ccc2c1` , please.
Found: 29.4 µM

Lookup: Tell me the measured TGI of CC(SC(=S)N1CCCCC1)C(=O)Nc1nnc(-c2ccc(Cl)cc2)o1 (stereo not drawn) , please.
Found: > 100 µM

Lookup: Tell me the measured TGI of `CC(C)(C)c1cc(-c2ccc(-c3cc(C(C)(C)C)c(O)c(C(C)(C)C)c3)cc2)cc(C(C)(C)C)c1O` , please.
Found: > 100 µM

Lookup: Tell me the measured TGI of `Cc1ccc(/C=C2\NC(=S)N(CN3CCOCC3)C2=O)cc1` , please.
Found: > 100 µM

Lookup: Tell me the measured TGI of COC(=O)C1=C(C(=O)OC)C23C=CC=CC24C(C(=O)OC)=C(C(=O)OC)C4C1C3 (stereo not drawn) , please.
Found: > 100 µM

Lookup: Tell me the measured TGI of `COc1ccc(NC(=O)C(=O)NNC(=O)c2sc(NNC(C)=O)nc2C)c([N+](=O)[O-])c1` , please.
Found: > 100 µM

Lookup: Tell me the measured TGI of N#CC1C(=N)Cc2ccccc2-c2ccccc21 (stereo not drawn) , please.
Found: 68.8 µM

Lookup: Tell me the measured TGI of `CCCCn1c2c(c3ccccc3c1=O)C(=O)c1ccccc1-2` , please.
Found: > 100 µM

Lookup: Tell me the measured TGI of `COc1ccc(/C=C(/C(=O)N2CCCC2)c2cc(OC)c(OC)c(OC)c2)cc1N` , please.
Found: > 100 µM

Lookup: Tell me the measured TGI of Oc1ccc(-c2nc3cc(C(F)(F)F)ccc3n2CC2CCCN3CCCCC23)cc1 (stereo not drawn) , please.
Found: 30.4 µM
